# target.system: Protein farnesyltransferase (Mus musculus, UniProt Q61239+Q8K2I1)
# test.name: Inhibition of H-Ras farnesylation expressed in mouse NIH3T3 cells
recorded.metric: log10 IC50 (log10 of the value in nM)
# values: log10(IC50), units nM

Here are 4 molecules together with their reported answers.
> print(dat)
                              sample.smiles  recorded.metric  value.measured
1  CCCS(=O)(=O)N(CCN(Cc1cncn1C)c1ccc(C#N)cc1)Cc1ccccc1       log10 IC50            1.85
2  Cc1cccc(CN(CCN(Cc2cncn2C)c2ccc(C#N)cc2)S(=O)(=O)c2cn(C)cn2)c1       log10 IC50            2.48
3  Cn1cnc(S(=O)(=O)N(CCN(Cc2cncn2C)c2ccc(C#N)cc2)Cc2cccc(C#N)c2)c1       log10 IC50            3.70
4  Cn1cnc(S(=O)(=O)N(CCN(Cc2cncn2C)c2ccc(C#N)cc2)Cc2cccs2)c1       log10 IC50            2.60

Data point: `Cn1cnc(S(=O)(=O)N(CCN(Cc2cncn2C)c2ccc(C#N)cc2)Cc2ccccc2)c1` ; log10 IC50 = 3.28

Data point: `Cn1cncc1CN(CCN(CC1CCCCC1)S(=O)(=O)c1ccccn1)c1ccc(C#N)cc1` ; log10 IC50 = 2.43

Data point: `Cn1cnc(S(=O)(=O)N(CCN(Cc2cnc[nH]2)c2ccc(Br)cc2)Cc2ccccc2)c1` ; log10 IC50 = 3.76

Data point: `Cn1cncc1CN(CCN(CC1CCCCC1)S(=O)(=O)c1ccccn1)c1ccc(C#N)cn1` ; log10 IC50 = 2.46

Data point: `Cn1cnc(S(=O)(=O)N(CCN(Cc2cncn2C)c2ccc(C#N)cc2)Cc2ccsc2)c1` ; log10 IC50 = 2.60

Data point: `Cn1cnc(S(=O)(=O)N(CCN(Cc2cncn2C)c2ccc(C#N)cc2)Cc2ccco2)c1` ; log10 IC50 = 2.90

Data point: `Cn1cnc(S(=O)(=O)N(CCN(Cc2cncn2C)c2ccc(C#N)cc2)Cc2ccc(-n3cccc3)cc2)c1` ; log10 IC50 = 3.60
